Origin of the recorded values: patent US20260035382A1

Provide the recorded pIC50 for the entries that follow.
# test system: SAE (Homo sapiens (Human), UniProt Q9UBT2)
# Sequence (Q9UBT2 whole entry): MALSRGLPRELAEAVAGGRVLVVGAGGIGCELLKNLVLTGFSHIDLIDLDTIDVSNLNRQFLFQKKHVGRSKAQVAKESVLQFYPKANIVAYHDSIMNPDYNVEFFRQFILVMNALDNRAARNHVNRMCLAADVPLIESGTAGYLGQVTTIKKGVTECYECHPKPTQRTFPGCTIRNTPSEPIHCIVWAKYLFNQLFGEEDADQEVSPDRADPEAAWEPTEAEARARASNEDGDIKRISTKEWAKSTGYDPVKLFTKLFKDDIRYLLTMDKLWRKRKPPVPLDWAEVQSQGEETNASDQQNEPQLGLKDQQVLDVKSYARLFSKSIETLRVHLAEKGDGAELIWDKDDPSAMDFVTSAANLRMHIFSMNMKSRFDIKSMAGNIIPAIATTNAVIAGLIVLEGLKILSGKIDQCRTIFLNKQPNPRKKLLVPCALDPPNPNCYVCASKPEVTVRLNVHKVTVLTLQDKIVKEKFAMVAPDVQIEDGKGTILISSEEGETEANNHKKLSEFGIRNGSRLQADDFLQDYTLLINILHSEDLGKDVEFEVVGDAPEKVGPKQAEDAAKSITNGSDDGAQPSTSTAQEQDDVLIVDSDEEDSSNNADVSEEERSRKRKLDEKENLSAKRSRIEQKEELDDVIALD
# Sequence (Q9UBE0 whole entry partner): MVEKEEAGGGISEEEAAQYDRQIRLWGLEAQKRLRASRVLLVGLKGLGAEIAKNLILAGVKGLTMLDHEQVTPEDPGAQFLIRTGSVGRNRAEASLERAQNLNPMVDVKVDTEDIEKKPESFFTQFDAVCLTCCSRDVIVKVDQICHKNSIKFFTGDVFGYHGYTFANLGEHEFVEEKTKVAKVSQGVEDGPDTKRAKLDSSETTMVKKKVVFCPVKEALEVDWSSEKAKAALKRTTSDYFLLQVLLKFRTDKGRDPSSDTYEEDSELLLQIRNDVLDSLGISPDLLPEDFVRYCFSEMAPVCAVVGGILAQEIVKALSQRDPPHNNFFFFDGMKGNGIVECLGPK
# method summary: In vitro inhibitory activity assay against SAE (SUMO-2/3 immunofluorescence in HCT116 cells)
# Assay type: cell-based
# conditions used: 6 h incubation, class symbols, read-out: SUMO IF IC50
# Procedure: HCT116 cells were seeded into a 96-well black transparent bottom plate at about 20000/well with 90 μL per well. The cells were incubated at 37° C. overnight for 24 h. The test compounds were 10-fold diluted to give a final concentration, and 10 μL of the diluted compounds was added to each well of the cell culture plate. The mixture was incubated at 37° C. for 6 h. […] The fluorescence signal of the sample was detected and compared to the DMSO group, and the inhibition rate and IC50 were calculated.
pIC50: −log10 of the molar value.

Q: Any idea what its pIC50 is? The compound is NS(=O)(=O)OC[C@H]1C[C@@H](Nc2ncncc2C(=O)c2cc3c(s2)COCC32NCCc3c(F)cc(Cl)cc32)C[C@@H]1O (stereo partly drawn)
Result: 6.70 to 7.30

Q: Any idea what its pIC50 is? The compound is CN1Cc2sc(C(=O)c3cncnc3N[C@@H]3C[C@H](COS(N)(=O)=O)[C@@H](O)C3)cc2[C@@]2(C1)OCCc1ccc(Cl)cc12
Result: < 6.70

Q: Any idea what its pIC50 is? The compound is COc1ccc2c(c1)C1(CCc3sc(C(=O)c4cncnc4N[C@@H]4C[C@H](COS(N)(=O)=O)[C@@H](O)C4)cc31)NCC2 (stereo partly drawn)
Result: < 6.70

Q: Any idea what its pIC50 is? The compound is NS(=O)(=O)OC[C@H]1C[C@@H](Nc2ncncc2C(=O)c2cc3c(s2)COC[C@]32NCCc3ccc(Cl)c(Cl)c32)C[C@@H]1O
Result: 6.70 to 7.30

Q: Any idea what its pIC50 is? The compound is NS(=O)(=O)OC[C@H]1C[C@@H](Nc2ncncc2C(=O)c2cc3c(s2)CCCC32NCCc3cc(F)c(Cl)cc32)C[C@@H]1O (stereo partly drawn)
Result: ≥ 7.30

Q: Any idea what its pIC50 is? The compound is Cc1cc2c(cc1Cl)C1(CCc3sc(C(=O)c4cncnc4N[C@@H]4C[C@H](COS(N)(=O)=O)[C@@H](O)C4)cc31)NCC2 (stereo partly drawn)
Result: 6.70 to 7.30

Q: Any idea what its pIC50 is? The compound is NS(=O)(=O)OC[C@H]1C[C@@H](Nc2ncncc2C(=O)c2cc3c(s2)CCC[C@@]32NCCc3ccccc32)C[C@@H]1O
Result: < 6.70

Q: Any idea what its pIC50 is? The compound is CN1CCc2ccc(Cl)cc2C12CCCc1sc(C(=O)c3cncnc3N[C@@H]3C[C@H](COS(N)(=O)=O)[C@@H](O)C3)cc12 (stereo partly drawn)
Result: 6.70 to 7.30

Q: Any idea what its pIC50 is? The compound is NS(=O)(=O)OC[C@H]1C[C@@H](Nc2ncncc2C(=O)c2cc3c(s2)CCCC32OCCc3ccc(Cl)cc32)C[C@@H]1O (stereo partly drawn)
Result: ≥ 7.30

Q: Any idea what its pIC50 is? The compound is NS(=O)(=O)OC[C@H]1C[C@@H](Nc2ncncc2C(=O)c2cc3c(s2)COCC32NCCc3ccc(Cl)c(F)c32)C[C@@H]1O (stereo partly drawn)
Result: 6.70 to 7.30

Q: Any idea what its pIC50 is? The compound is NS(=O)(=O)OC[C@H]1C[C@@H](Nc2ncncc2C(=O)c2cc3c(s2)OC[C@]32NCCc3ccc(F)cc32)C[C@@H]1O
Result: 6.70 to 7.30

Q: Any idea what its pIC50 is? The compound is C=CCN1Cc2sc(C(=O)c3cncnc3N[C@@H]3C[C@H](COS(N)(=O)=O)[C@@H](O)C3)cc2C2(C1)NCCc1ccc(Cl)cc12 (stereo partly drawn)
Result: ≥ 7.30

* * *

Provide the recorded half-life for the entries that follow.
# method summary: In vivo pharmacokinetic experiment, intravenous administration
# conditions used: mouse, 2 mg/kg, CD-1 female mice, 2 mpk, plasma
# value in h; strip the unit string

Q: Any idea what its half-life is? The molecule is NS(=O)(=O)OC[C@H]1C[C@@H](Nc2ncncc2C(=O)c2cc3c(s2)CCC[C@]32NCCc3ccc(F)cc32)C[C@@H]1O [Compound 9]
Result: 1.31

Q: Any idea what its half-life is? The molecule is NS(=O)(=O)OC[C@H]1C[C@@H](Nc2ncncc2C(=O)c2cc3c(s2)COC[C@]32NCCc3ccc(Cl)cc32)C[C@@H]1O [Compound 21]
Result: 2.17

Q: Any idea what its half-life is? The molecule is NS(=O)(=O)OC[C@H]1C[C@@H](Nc2ncncc2C(=O)c2cc3c(s2)CC[C@]32NCCc3ccc(Cl)cc32)C[C@@H]1O [Compound 48]
Result: 1.32

Q: Any idea what its half-life is? The molecule is NS(=O)(=O)OC[C@H]1C[C@@H](Nc2ncncc2C(=O)c2cc3c(s2)CCC[C@]32NCCc3ccc(Cl)cc32)C[C@@H]1O [Compound 6]
Result: 1.45

* * *

# test system: SAE (Homo sapiens (Human), UniProt Q9UBT2)
# method summary: In vitro inhibitory activity assay against SAE (SUMO-2/3 immunofluorescence in HCT116 cells)
# Assay type: cell-based
# conditions used: 6 h incubation, class symbols, read-out: SUMO IF IC50
# Description: HCT116 cells were seeded into a 96-well black transparent bottom plate at about 20000/well with 90 μL per well. The cells were incubated at 37° C. overnight for 24 h. The test compounds were 10-fold diluted to give a final concentration, and 10 μL of the diluted compounds was added to each well of the cell culture plate. The mixture was incubated at 37° C. for 6 h. […] The fluorescence signal of the sample was detected and compared to the DMSO group, and the inhibition rate and IC50 were calculated.
quantity measured: IC50

Q: Notebook entry, SAE (Homo sapiens (Human), UniProt Q9UBT2) assay: IC50 of NS(=O)(=O)CC[C@H]1C[C@@H](Nc2ncncc2C(=O)c2cc3c(s2)CCCC32NCCc3ccc(Cl)nc32)C[C@@H]1O (stereo partly drawn) = ?
Result: ≤ 50 nM

Q: Notebook entry, SAE (Homo sapiens (Human), UniProt Q9UBT2) assay: IC50 of NS(=O)(=O)OC[C@H]1C[C@@H](Nc2ncncc2C(=O)c2cc3c(s2)OC[C@@]32NCCc3ccc(Cl)cc32)C[C@@H]1O = ?
Result: > 200 nM

Q: Notebook entry, SAE (Homo sapiens (Human), UniProt Q9UBT2) assay: IC50 of N#Cc1ccc2c(c1)[C@@]1(CCCc3sc(C(=O)c4cncnc4N[C@@H]4C[C@H](COS(N)(=O)=O)[C@@H](O)C4)cc31)OCC2 = ?
Result: ≤ 50 nM

* * *

# test system: SAE (Homo sapiens (Human))
# method summary: In vitro inhibitory activity assay against SAE (SUMO-2/3 immunofluorescence in HCT116 cells)
# Format: cell-based
# conditions used: 6 h incubation, class symbols, read-out: SUMO IF IC50
pIC50: −log10 of the molar value.
Provide the recorded pIC50 for the entries that follow.

Q: Any idea what its pIC50 is? The molecule is NS(=O)(=O)OC[C@H]1C[C@@H](Nc2ncncc2C(=O)c2cc3c(s2)CCC32NC3(CC3)Cc3ccc(Cl)cc32)C[C@@H]1O (stereo partly shown)
Result: 6.70 to 7.30

Q: Any idea what its pIC50 is? The molecule is NS(=O)(=O)OC[C@H]1C[C@@H](Nc2ncncc2C(=O)c2cc3c(s2)CCCC32NCCc3ccncc32)C[C@@H]1O (stereo partly shown)
Result: 6.70 to 7.30

Q: Any idea what its pIC50 is? The molecule is NS(=O)(=O)OC[C@H]1C[C@@H](Nc2ncncc2C(=O)c2cc3c(s2)CCCC32NCCc3ccc(C4CC4)cc32)C[C@@H]1O (stereo partly shown)
Result: 6.70 to 7.30

Q: Any idea what its pIC50 is? The molecule is NS(=O)(=O)OC[C@H]1C[C@@H](Nc2ncncc2C(=O)c2cc3c(s2)CCC32NCCc3ccc(Cl)cc32)C[C@@H]1O (stereo partly shown)
Result: 6.70 to 7.30

Q: Any idea what its pIC50 is? The molecule is NS(=O)(=O)OC[C@H]1C[C@@H](Nc2ncncc2C(=O)c2cc3c(s2)CCC32NCC3(CC3)c3ccc(Cl)cc32)C[C@@H]1O (stereo partly shown)
Result: 6.70 to 7.30

Q: Any idea what its pIC50 is? The molecule is CN1Cc2sc(C(=O)c3cncnc3N[C@@H]3C[C@H](COS(N)(=O)=O)[C@@H](O)C3)cc2C2(C1)OCCc1ccccc12 (stereo partly shown)
Result: 6.70 to 7.30

Q: Any idea what its pIC50 is? The molecule is NS(=O)(=O)OC[C@H]1C[C@@H](Nc2ncncc2C(=O)c2cc3c(s2)CCC[C@]32NCCc3ccncc32)C[C@@H]1O
Result: 6.70 to 7.30

Q: Any idea what its pIC50 is? The molecule is NS(=O)(=O)OC[C@H]1C[C@@H](Nc2ncncc2C(=O)c2cc3c(s2)COCC32NCCc3ccc(Cl)c(Cl)c32)C[C@@H]1O (stereo partly shown)
Result: 6.70 to 7.30

Q: Any idea what its pIC50 is? The molecule is CCN1Cc2sc(C(=O)c3cncnc3N[C@@H]3C[C@H](COS(N)(=O)=O)[C@@H](O)C3)cc2[C@]2(C1)OCCc1ccc(F)cc12
Result: ≥ 7.30

Q: Any idea what its pIC50 is? The molecule is NS(=O)(=O)OC[C@H]1C[C@@H](Nc2ncncc2C(=O)c2cc3c(s2)CC[C@]32NCC3(CC3)c3ccc(Cl)cc32)C[C@@H]1O
Result: 6.70 to 7.30

Q: Any idea what its pIC50 is? The molecule is CN1Cc2sc(C(=O)c3cncnc3N[C@@H]3C[C@H](COS(N)(=O)=O)[C@@H](O)C3)cc2[C@]2(C1)OCCc1ccc(F)cc12
Result: ≥ 7.30

Q: Any idea what its pIC50 is? The molecule is NS(=O)(=O)OC[C@H]1C[C@@H](Nc2ncncc2C(=O)c2cc3c(s2)CSCC32NCCc3ccc(Cl)cc32)C[C@@H]1O (stereo partly shown)
Result: ≥ 7.30

Q: Any idea what its pIC50 is? The molecule is NS(=O)(=O)OC[C@H]1C[C@@H](Nc2ncncc2C(=O)c2cc3c(s2)C(F)(F)CC32NCCc3ccc(Cl)cc32)C[C@@H]1O (stereo partly shown)
Result: 6.70 to 7.30
